Please provide measured IC50 for the entries that follow.
Target: Bub1 (Homo sapiens)
Sequence (O43683 whole entry): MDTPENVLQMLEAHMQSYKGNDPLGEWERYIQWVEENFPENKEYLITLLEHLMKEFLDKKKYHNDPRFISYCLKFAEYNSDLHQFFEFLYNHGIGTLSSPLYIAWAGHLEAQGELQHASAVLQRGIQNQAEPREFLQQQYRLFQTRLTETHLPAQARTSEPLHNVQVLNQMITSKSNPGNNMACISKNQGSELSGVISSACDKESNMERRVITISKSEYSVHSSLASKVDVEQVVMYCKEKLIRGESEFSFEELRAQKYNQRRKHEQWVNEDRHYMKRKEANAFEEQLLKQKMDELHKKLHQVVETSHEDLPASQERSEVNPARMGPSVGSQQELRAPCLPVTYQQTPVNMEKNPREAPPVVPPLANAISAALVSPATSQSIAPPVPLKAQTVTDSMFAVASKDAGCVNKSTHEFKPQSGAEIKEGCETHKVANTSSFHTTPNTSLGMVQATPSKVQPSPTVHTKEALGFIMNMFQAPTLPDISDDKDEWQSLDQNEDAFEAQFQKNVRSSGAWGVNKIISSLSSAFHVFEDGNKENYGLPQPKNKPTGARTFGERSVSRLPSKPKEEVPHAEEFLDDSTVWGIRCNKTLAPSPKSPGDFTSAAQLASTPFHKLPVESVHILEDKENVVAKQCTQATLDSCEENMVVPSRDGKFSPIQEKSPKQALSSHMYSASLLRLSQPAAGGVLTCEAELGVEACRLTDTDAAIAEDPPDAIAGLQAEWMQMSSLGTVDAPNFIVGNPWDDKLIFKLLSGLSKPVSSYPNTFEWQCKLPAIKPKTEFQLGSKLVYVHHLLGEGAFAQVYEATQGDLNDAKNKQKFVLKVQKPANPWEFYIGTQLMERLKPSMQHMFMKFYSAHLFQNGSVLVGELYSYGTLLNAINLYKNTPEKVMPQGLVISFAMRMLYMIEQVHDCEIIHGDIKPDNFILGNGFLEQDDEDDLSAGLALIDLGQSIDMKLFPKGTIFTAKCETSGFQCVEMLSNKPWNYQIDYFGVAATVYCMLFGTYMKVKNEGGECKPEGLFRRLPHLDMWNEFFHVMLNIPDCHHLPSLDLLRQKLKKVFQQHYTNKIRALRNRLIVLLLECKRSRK
Assay: Formation-Assay: phosphorylation status of histone 2A by inhibition of kinase activity of Bub1
Format: cell-based
Conditions: Biological Assay 4.1: H2A Formation IC50, co-treatment with Nocodazole 1 μg/ml, 16 h
Method: Biological Assay 4.1: Formation-Assay Cell-Based Mechanistic Assay: Changes of Phosphorylation Status of Histone 2A by Inhibition of Kinase Activity of Bub1 This assay determines the suppression of histone 2A phosphorylation by a Bub1 kinase inhibitor during co-treatment with Nocodazole. 25000 cells (cells were ordered from ATCC) were seeded in 96 well plate for 5 h at 37° C. Cells were treated with Nocodazole (1 μg/ml) and varying concentrations (between 3 nM and 10 μM) of test compounds for 16 h. […]

Observe how each entry below is paired with its result.
# IC50 (compound: CCOc1cc(F)c(Cn2nc(-c3ncc(CCN4CCCC(F)(F)C4)c(Nc4ccncc4)n3)c3ccccc32)c(F)c1 [Example 2-2-16] ) is 1900 nM

# IC50 (compound: CCOc1cc(F)c(Cn2nc(-c3nc(CN4CCOCC4)cc(Nc4ccnc(NC(=O)C5CC5)c4)n3)c3ccccc32)c(F)c1 [Example 2-19-11] ) is 180 nM

# IC50 (compound: CCOc1cc(F)c(Cn2nc(-c3nc4c(c(Nc5ccnc(OC)c5)n3)CCC4)c3ccccc32)c(F)c1 [Example 2-19-7] ) is 21 nM

Each compound below has a reported value. Please supply its IC50.
1. CCOc1cc(F)c(Cn2nc(-c3ncc(CC[S@@+](C)[O-])c(Nc4ccncc4)n3)c3ccccc32)c(F)c1 [Example 2-1-1]
2. CCOc1cc(F)c(Cn2nc(-c3nc4c(c(Nc5cc(C)ncn5)n3)CCC4)c3ccccc32)c(F)c1 [Example 2-21-1]
3. CCOc1cc(F)c(Cn2nc(-c3nc4c(c(Nc5ccnc(NC(C)=O)c5)n3)CCC4)c3ccccc32)c(F)c1 [Example 2-12-18]
4. CCOc1cc(F)c(Cn2nc(-c3nc4c(c(Nc5ccncc5F)n3)CCC4)c3ccccc32)c(F)c1 [Example 2-14-1]
5. CCOc1cc(F)c(Cn2nc(-c3ncc(C4CCN(CC(F)(F)F)CC4)c(Nc4ccncn4)n3)c3ccccc32)c(F)c1 [Example 2-20-3]

a:
1400 nM
1900 nM
4.1 nM
2.8 nM
2.2 nM

Each compound below has a reported value. Please supply its IC50.
1. CCOc1cc(F)c(Cn2nc(-c3nc(CN4CCOCC4)cc(Nc4ccncn4)n3)c3ccccc32)c(F)c1 [Example 2-12-47]
2. CCOc1cc(F)c(Cn2nc(-c3nc4c(c(Nc5ccnc(C)c5)n3)CSC4)c3ccccc32)c(F)c1 [Example 2-19-4]
3. CCOc1cc(F)c(Cn2nc(-c3nc(CN4CCOCC4)cc(Nc4ccnc(C)c4)n3)c3ccccc32)c(F)c1 [Example 2-19-9]

a:
1. 2100 nM
2. 45 nM
3. 18 nM

----------
molecular target: UniProt:O43683; experiment: Formation-Assay: phosphorylation status of histone 2A by inhibition of kinase activity of Bub1; type: cell-based; details: Biological Assay 4.1: H2A Formation IC50, co-treatment with Nocodazole 1 μg/ml, 16 h
Quantity measured: IC50
The number alone won't do; follow it with the unit.

Observe how each entry below is paired with its result.
# IC50 (molecule: "CCOc1cc(F)c(Cn2nc(-c3ncc(CCNCC(F)(F)F)c(Nc4ccncc4)n3)c3ccccc32)c(F)c1" ) is 18 nM

# IC50 (molecule: "CCOc1cc(F)c(Cn2nc(-c3nc(CO)cc(Nc4ccncc4C)n3)c3ccccc32)c(F)c1" ) is 52 nM

# IC50 (molecule: "CCOc1cc(F)c(Cn2nc(-c3ncc(CC4CNC4)c(Nc4ccnc(C(F)(F)F)c4)n3)c3ccccc32)c(F)c1" ) is 14 nM

# IC50 (molecule: CCOc1cc(F)c(Cn2nc(-c3ncc(OCC(=O)N4CC(F)(F)C4)c(Nc4ccncc4)n3)c3ccccc32)c(F)c1 [Example 3-5-1, reference compound] ) is 360 nM

# IC50 (molecule: "CCOc1cc(F)c(Cn2nc(-c3nc4c(c(Nc5ccnc(C(F)(F)F)c5)n3)CNC4)c3ccccc32)c(F)c1" ) is 2.8 nM

# IC50 (molecule: "CCOc1cc(F)c(Cn2nc(-c3nc4c(c(Nc5ncncn5)n3)CCC4)c3ccccc32)c(F)c1" ) is 25 nM

Kindly review the next molecule as well.
# IC50 (molecule: "CCOc1cc(F)c(Cn2nc(-c3ncc(CC4CNC4)c(Nc4ccnc(C(F)F)c4)n3)c3ccccc32)c(F)c1" ) is 2.7 nM
